experiment: AUC (0 to infinity) in BALB/c mouse at 5 mg/kg, po after 24 hrs by LC/MS/MS method; format: ADME, organism-based, Plasma; parameters: time infinity, dose 5 mg/kg, route oral; settings: BALB/c, plasma
property_measured: AUC(0-inf) (µM·h)

1) COc1cc2ncnc(Nc3ccc(F)c(Cl)c3)c2cc1NC(=O)/C(F)=C/CN1CCCCC1 = 5.1

----------
Reported pIC50 values, Cytochrome P450 3A4 (Homo sapiens).
pIC50: −log10 of the molar value.
property_measured: pIC50

1) CN(C)C/C=C(\F)C(=O)Nc1cc2c(Nc3ccc(F)c(Cl)c3)ncnc2cc1O[C@H]1CCOC1 = < 5.00
2) COc1cc2ncnc(Nc3ccc(F)c(Cl)c3)c2cc1NC(=O)/C(F)=C/CN1CCCCC1 = < 5.00
